Target: T1, human PACAP38 (human, not fully specified; C-terminal lysine is amidated; N-terminal or C-terminal biotin in the HTRF and PC-12 cell binding assays)
T1 construct: synthetic peptide, bought; also called huPACAP (1-38)
T1 peptide: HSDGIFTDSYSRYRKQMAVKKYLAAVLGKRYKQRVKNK
Assay: SPR, Ab immobilised
pKd: −log10 of the molar value.

{"Binder": "anti-PACAP antibody Ab17 (antibody, human IgG1, kappa, N297A, V domains shown, full-length rabbit/human chimeric antibody) VH: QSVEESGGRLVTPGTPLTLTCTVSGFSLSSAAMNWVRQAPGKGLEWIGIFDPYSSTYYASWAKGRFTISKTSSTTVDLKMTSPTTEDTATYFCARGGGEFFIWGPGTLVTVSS VL: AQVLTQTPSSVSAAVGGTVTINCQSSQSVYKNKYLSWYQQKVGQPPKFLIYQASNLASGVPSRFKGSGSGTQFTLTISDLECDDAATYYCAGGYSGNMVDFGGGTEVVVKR", "pKd": "≥ 10.70"}
{"Binder": "anti-PACAP antibody Ab8 (antibody, human IgG1, kappa, N297A, V domains shown, full-length rabbit/human chimeric antibody) VH: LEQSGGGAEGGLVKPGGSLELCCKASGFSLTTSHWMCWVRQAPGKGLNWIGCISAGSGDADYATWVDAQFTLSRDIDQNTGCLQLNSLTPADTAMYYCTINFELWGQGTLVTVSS VL: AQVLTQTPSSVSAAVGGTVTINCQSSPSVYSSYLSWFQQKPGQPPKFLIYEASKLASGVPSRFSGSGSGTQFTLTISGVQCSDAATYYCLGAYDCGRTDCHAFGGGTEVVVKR", "pKd": "≥ 10.54"}
{"Binder": "anti-PACAP antibody Ab4 (antibody, human IgG1, kappa, N297A, V domains shown, full-length rabbit/human chimeric antibody) VH: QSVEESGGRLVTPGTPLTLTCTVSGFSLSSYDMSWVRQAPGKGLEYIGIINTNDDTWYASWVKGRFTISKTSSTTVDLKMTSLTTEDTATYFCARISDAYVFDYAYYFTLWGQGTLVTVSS VL: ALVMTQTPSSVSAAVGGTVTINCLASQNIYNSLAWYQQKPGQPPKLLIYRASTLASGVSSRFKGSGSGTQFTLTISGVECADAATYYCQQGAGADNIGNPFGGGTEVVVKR", "pKd": 9.66}
